Measured values drawn from PubChem BioAssay (NCI) for this set.

test system: UACC-257 melanoma; assay: NCI tumour cell line growth inhibition, 48 h
Provide the reported TGI of each item.

compound: Cc1ccc(S(=O)(=O)Nc2cc(=O)[nH]c3c2CCC3)cc1
TGI: > 100 µM

For every item below, please supply its TGI.
1. CC(=O)Nc1ccc(S(=O)(=O)N/N=C(\C)CN2C(=O)c3ccccc3C2=O)cc1
2. CC(NC(=O)c1ccc(OP(=O)(OCc2ccc([N+](=O)[O-])o2)N(C)CCCCCl)cc1)c1ccc(OCC2CCCCC2)c(C(N)=O)c1 (stereo not given)
3. CSc1ccc(NC(=O)CCl)cc1
4. COc1ccc(/C=C\c2cc(OC)c(OC)c(OC)c2)cc1N/C=C\C(=O)c1c[nH]c2ccccc12

Outgoing:
> 100 µM
> 39.8 µM
> 10 µM
> 100 µM

For each of the compounds below, state TGI.
1. COc1ccc(OC)c2c1ccc1c(C)c3ccccc3c(C)c12
2. CN(C)c1cccc2c(S(=O)(=O)NCCCNCCN)cccc12

Outgoing:
> 100 µM
> 100 µM

Required: TGI, one value per compound below.
1. CCC12CN(C(=O)OC)C3C(Br)C1CCC(=O)C32 (stereo not given)
2. COc1ccc([C@H]2[C@@H]3CCc4ccccc4C3=NN2C(N)=S)cc1OC
3. COc1ccc(-n2nc(C(=O)NCC(=O)Nc3nc4cc(OC)ccc4s3)c3ccccc3c2=O)cc1
4. C[C@@H]1C[C@@H]2C(=O)N(c3ccccc3)C(=O)[C@@H]2c2[nH]c3ccc(Br)cc3c21
5. Clc1cccc(/C=c2\nc(-c3ccccc3)n3c2nc2ccccc23)c1
6. CCN(CC)CCC(CNc1c(C)cnc2cc(Cl)ccc12)c1ccc(Cl)c(Cl)c1 (stereo not given)
7. N#CC(C(=S)Nc1ccccc1)=C1Nc2ccccc2N1
8. O[C@]12c3ccccc3C1CCCC2N1CCOCC1 (stereo not given in full)

Outgoing:
["> 100 µM", "> 100 µM", "5.07 µM", "> 100 µM", "> 100 µM", "3.93 µM", "> 10 µM", "> 100 µM"]

Below are 5 compounds. Give each one its TGI.
1. CC(C)(C)[Si](C)(C)O/N=C\c1cccc(O[Si](C)(C)C(C)(C)C)c1
2. CN(CCN1C(=O)c2cccc3cccc(c23)C1=O)CCN1C(=O)c2cccc3cccc(c23)C1=O
3. CC(O)/C=C/C1OC(=O)CC1Nc1ccc(C=O)cc1 (stereo not given)
4. COc1ccc2c(ccc3oc([N+](=O)[O-])cc32)c1
5. COC(=O)[C@]12CC[C@@H](C)[C@H](C)[C@@H]1C1=CC[C@@H]3[C@@]4(C)C(C=O)=C[C@@](C)(COC(=O)c5ccco5)C4=CC[C@@]3(C)[C@]1(C)CC2

Outgoing:
1. 46.2 µM
2. > 100 µM
3. > 100 µM
4. 0.43 µM
5. 0.65 µM

* * *

Give measured TGI for each item. Keep answers brief.
system: CCRF-CEM leukemia; assay: NCI tumour cell line growth inhibition, 48 h

molecule: CC(CCCCNC(=O)OC(C)(C)C)NC(=O)NC(C)CCCCNC(=O)OC(C)(C)C (stereo not given)
TGI: > 100 µM

For each of the items listed, what is its TGI?
1. COc1cc2ccnc(-c3n[nH]c4cc(OC)c(OC)cc34)c2cc1OC
2. CCN1Cc2c(/C=C/c3ccccc3)nc3ccc(OC)cc3c2N(c2cccc(Cl)c2)C1
3. COc1cc2c3c(n(CCCN=[N+]=[N-])c(=O)c2cc1OC)-c1ccc(NC(C)=O)cc1C3=O

Outgoing:
["> 100 µM", "5.84 µM", "> 50 µM"]

Report TGI for every entry below.
1. NC1=C(/C(N)=N/O)C(c2ccccc2)c2ccc3ccccc3c2O1 (stereo not given)
2. COc1ccccc1N1CCN(CC(O)Cn2c(=O)c3c(OC)nc(C)cc3c(=O)n2-c2ccccc2)CC1 (stereo not given)

Outgoing:
> 62.8 µM
> 100 µM

Hi! Can you tell me TGI for each of these molecules?
1. CC(=O)Nc1ccc(S(=O)(=O)N/N=C(\C)CN2C(=O)c3ccccc3C2=O)cc1
2. Oc1ccc(Cl)cc1C1=Nn2c(COc3ccc4c(c3)CCCC4)nnc2SC1
3. N#CC(C#N)[C@@H]1CCC=C(Sc2ccccc2)[C@H]1Sc1ccccc1

Outgoing:
1. > 100 µM
2. 46.3 µM
3. 7.26 µM

Incoming: Please look up its TGI: Cc1cccc(/C=N/N=C(\N)NO)n1
Outgoing: > 100 µM

* * *

test system: MALME-3M melanoma; experiment: NCI tumour cell line growth inhibition, 48 h; in the data active = GI50 below about 0.43 µM; inactive = the rest
Reply using exactly one outcome from true (1) = active, false (0) = inactive

Use the examples below as a reference point.
molecule: O=C1c2ccccc2-c2c1c1ccc([N+](=O)[O-])cc1c(=O)n2CCN1CCOCC1
assay system: MALME-3M melanoma
assigned category: false (0)
//
molecule: CN1CCN(c2ccc(NC(=O)c3cncnc3Nc3ccc4c(ccn4Cc4cccc(F)c4)c3)cc2)CC1
assay system: MALME-3M melanoma
assigned category: false (0)
//
molecule: Cc1ccc(Nn2c(SCC(=O)Nc3nc(-c4ccccc4)cs3)nc(C)c2C)cc1
assay system: MALME-3M melanoma
assigned category: false (0)

Incoming: Could you kindly confirm the outcome this assay logged for COc1ccc2c(ccc3oc([N+](=O)[O-])cc32)c1 ?
Outgoing: true (1)

Incoming: Another: CCCCc1n(Cc2ccc3ccccc3n2)cc[n+]1Cc1ccc2ccccc2c1
Outgoing: false (0)

* * *

tested on: CAKI-1 renal; test: NCI tumour cell line growth inhibition, 48 h; in the data active = GI50 below about 0.43 µM; inactive = the rest
Answer with one of the outcomes given here: active, inactive

molecule: COc1cc2c3c(n(CCCN=[N+]=[N-])c(=O)c2cc1OC)-c1ccc(NC(C)=O)cc1C3=O
assigned category: inactive
--
molecule: CN1CCN(c2ccc(NC(=O)c3cncnc3Nc3ccc4c(ccn4Cc4cccc(F)c4)c3)cc2)CC1
assigned category: inactive
--
molecule: Cc1nc2sc(C(=O)Nc3cccc(Cl)c3C)c(N)c2cc1C(O)c1ccccc1 (centres undefined)
assigned category: active
--
molecule: COc1ccc(-n2nc(C(=O)c3ccccc3)c3nn4c(=O)cc(-c5ccccc5)nc4nc32)cc1
assigned category: inactive
--
molecule: CC(C)CCCC(C)[C@H]1CCC2C3CC=C4C[C@@H](OC(=O)CC(CC(=O)[O-])C(=O)[O-])CC[C@]4(C)C3CC[C@@]21C.N.N.[Pt+4] (some centres undefined)
assigned category: inactive
--
molecule: COc1ccc(OC)c(-c2nc3sc(C)cn3c2/C=C2\C(=O)N(C)c3ccccc32)c1
assigned category: inactive
--
molecule: N#Cc1cc2c(=S)[nH]c(=S)[nH]c2nc1SCc1ccccc1
assigned category: inactive
--
molecule: COc1ccc(C#CC2=C(Br)C(=O)OC2)cc1
assigned category: inactive

Now turn to the next molecule.
Incoming: Status in this test for COc1ncc(-c2ccc3ncnc(Nc4cccc(Cl)c4)c3c2)cc1NS(C)(=O)=O ?
Outgoing: inactive

* * *

Assign TGI to each entry below.
test system: NCI-H23 lung; assay: NCI tumour cell line growth inhibition, 48 h
One number for each entry, in µM.

Please review the entries below; each comes with its answer.
molecule: CN(CCN1C(=O)c2cccc3cccc(c23)C1=O)CCN1C(=O)c2cccc3cccc(c23)C1=O
value unit: µM
readout number: 43.7
--
molecule: Oc1ccc(Cl)cc1C1=Nn2c(COc3ccc4c(c3)CCCC4)nnc2SC1
value unit: µM
readout number: 26.9

Consider the following items and state reported TGI for each.
1. O=C1Nc2cc(-c3ccc(O)cc3)ccc2/C1=C/c1ccc[nH]1
2. Cc1nc2sc(C(=O)Nc3cccc(Cl)c3C)c(N)c2cc1C(O)c1ccccc1 (stereo not given)
3. COc1ccc(OC)c(-c2nc3sc(C)cn3c2/C=C2\C(=O)N(C)c3ccccc32)c1

Outgoing:
1: 2.81; 2: 12.9; 3: 59.3

Batch lookup, TGI per entry.
1. O=C(/C=C/c1ccc(O)c(O)c1)O[C@H]1CCCC[C@@H]1OC(=O)/C=C/c1ccc(O)c(O)c1
2. O=C(/C=C/c1cc(O)ccc1O)c1ccc(Cl)cc1
3. CCN1C(=O)N[C@H]2[C@@H]3NC(=O)c4ccc(Cl)n4[C@@H]3C[C@]21O
4. C#C[C@]1(O)[C@@H](CO)O[C@@H](n2ccc(=O)[nH]c2=O)[C@@H]1O
5. O=C(Oc1c(Cl)c(Cl)c(Cl)c(Cl)c1Cl)C1CCCN1C(=O)OCc1ccccc1 (stereo not given)
6. O=C1/C(=C/c2ccc([N+](=O)[O-])cc2)Sc2scc(-c3cccc([N+](=O)[O-])c3)[n+]21

Outgoing:
[33.7, 43.3, 4.52, 7.37, 10.1, 42]

* * *

test system: SF-268 CNS; assay: NCI tumour cell line growth inhibition, 48 h
Consider the following molecules; for each one, report its TGI.

Completed entries (count: 10):
molecule: NC(=S)NN=C1Cc2ccccc2C1
TGI: > 100 µM

molecule: CSc1ccc(NC(=O)CCl)cc1
TGI: > 10 µM

molecule: NC(N)=N/N=C/c1c(-c2cccs2)nc2n1CCS2
TGI: 53.3 µM

molecule: O=S(=O)(N1CCCCN(S(=O)(=O)C(F)(F)F)CCCN(S(=O)(=O)C(F)(F)F)CCCCN(S(=O)(=O)C(F)(F)F)CCCN(S(=O)(=O)C(F)(F)F)CCCCN(S(=O)(=O)C(F)(F)F)CCCN(S(=O)(=O)C(F)(F)F)CCCCN(S(=O)(=O)C(F)(F)F)CCC1)C(F)(F)F
TGI: > 31.6 µM

molecule: CN1CCN(c2ccc(NC(=O)c3cncnc3Nc3ccc4c(ccn4Cc4cccc(F)c4)c3)cc2)CC1
TGI: 9.17 µM

molecule: O=C(O)c1ccc(C2=Nc3cccc4cccc(c34)N2)cc1
TGI: > 100 µM

molecule: O=C(C[n+]1ccn(CC(OCc2ccc(Cl)cc2Cl)c2ccc(Cl)cc2Cl)c1)c1ccc(F)cc1 (centres undefined)
TGI: 3.09 µM

molecule: CCOC(=O)CCCOc1cc(-c2ccccc2F)nc2cc3c(cc12)OCO3
TGI: > 100 µM

molecule: Clc1ccc2c(NCCNc3nc(N4CCCCC4)nc4ccccc34)ccnc2c1
TGI: 7.33 µM

molecule: CCOc1cc(CCNC)c2c(ccc3ccc(OC)c(O)c32)c1OC
TGI: 38.3 µM

Parameter requested: TGI. Apply to each item below.
1. O=C(Cc1ccccc1)Nc1nc2ccc(Cl)cc2c2nc(-c3ccco3)nn12
2. Oc1ccc(Cl)cc1C1=Nn2c(COc3ccc4c(c3)CCCC4)nnc2SC1
3. CCOC(=O)c1cccc(N=Nc2ncc(/C=C/C(=O)OC)[nH]2)c1
4. COc1ccccc1CNC(=O)/C=C/c1ccc(O)c(O)c1
5. CC(=O)OCCC/C(=C/c1cc2ccccc2c2ccccc12)[N+](=O)[O-]
6. COC(=O)C1=C(C(=O)OC)N(c2ccncc2)C(c2ccco2)=CC1c1ccccc1[N+](=O)[O-] (centres undefined)

Outgoing:
> 100 µM
35 µM
> 100 µM
> 100 µM
2.89 µM
20.8 µM

Hi there! I need TGI for each item below, if you can.
1. CN(C)c1ccc(/C=C2\C[C@H]3[C@@H]4CC=C5C[C@@H](O)CC[C@]5(C)[C@H]4CC[C@]3(C)[C@H]2O)cc1
2. COc1cc2c3c(n(CCCN=[N+]=[N-])c(=O)c2cc1OC)-c1ccc(NC(C)=O)cc1C3=O
3. CCCCCCCCCCCCCC/C(C(=O)O)=C(\C)C(=O)O

Outgoing:
["34.8 µM", "> 50 µM", "> 100 µM"]
